# ASSAY_PROCEDURE: Stability studies (storage at 60 °C in closed bottles or at 40 °C / 75 % RH in an open bottle; related substances by HPLC)
# MEASUREMENT_PARAMETERS: closed bottle, two weeks at 60 °C
Where a name gives a salt, the structure may show the parent alone.
QUANTITY_NAME: stability (degradation, related substances by HPLC)

Sample records with stability (degradation, related substances by HPLC):
• N[C@@H](CC(=O)N1CCn2c(nnc2C(F)(F)F)C1)Cc1cc(F)c(F)cc1F [phosphate monohydrate, sitagliptin dihydrogenphosphate, reference compound] = stable
• N[C@@H](CC(=O)N1CCn2c(nnc2C(F)(F)F)C1)Cc1cc(F)c(F)cc1F [maleate (solvated), Sitagliptin Maleate Form I] = degradation was observed
• N[C@@H](CC(=O)N1CCn2c(nnc2C(F)(F)F)C1)Cc1cc(F)c(F)cc1F [maleate (non solvated), Sitagliptin Maleate Form II] = stable
• N[C@@H](CC(=O)N1CCn2c(nnc2C(F)(F)F)C1)Cc1cc(F)c(F)cc1F [C: Lactate, Sitagliptin Lactate] = degradation was observed
• N[C@@H](CC(=O)N1CCn2c(nnc2C(F)(F)F)C1)Cc1cc(F)c(F)cc1F [sulfate (non solvated), Sitagliptin Sulfate Form II] = stable

Name the recorded stability (degradation, related substances by HPLC) for N[C@@H](CC(=O)N1CCn2c(nnc2C(F)(F)F)C1)Cc1cc(F)c(F)cc1F [A: Phosphate, Sitagliptin Phosphate] . stable

Ref: patent EP2915814A2
